# maps each entry to its pKd
Target: T1, T4 DNA ligase NTase-OB fragment (2CT) (Bacteriophage T4 (ATCC), UniProt P00970 136-487)
T1 sequence: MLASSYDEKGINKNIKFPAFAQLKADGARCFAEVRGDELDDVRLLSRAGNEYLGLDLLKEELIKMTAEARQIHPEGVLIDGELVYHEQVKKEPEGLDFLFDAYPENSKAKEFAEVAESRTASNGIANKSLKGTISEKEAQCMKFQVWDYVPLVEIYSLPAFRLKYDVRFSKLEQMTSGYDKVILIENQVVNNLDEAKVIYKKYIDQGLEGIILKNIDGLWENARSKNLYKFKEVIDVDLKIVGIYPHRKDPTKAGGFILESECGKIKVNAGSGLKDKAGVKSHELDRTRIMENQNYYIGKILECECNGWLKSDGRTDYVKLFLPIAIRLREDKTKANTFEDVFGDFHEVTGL
Assay: fluorescence anisotropy
pKd: −log10 of the molar value.
measured.attribute: pKd

1. nicked 32-bp dsDNA probe (dsDNA, 5'-phosphate on S6 at the nick) DNA 1: GGTAGCCACAGCCAGTCAGCCGATTGCGGGAC DNA 2: GTCCCGCAATCGGCTG DNA 3: ACTGGCTGTGGCTACC = 4.64
2. intact (unnicked) 32-bp dsDNA probe (dsDNA) DNA 1: GGTAGCCACAGCCAGTCAGCCGATTGCGGGAC DNA 2: GTCCCGCAATCGGCTGACTGGCTGTGGCTACC = 4.77

// data source = paper PMC6212786
